- Tested on: ATP;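 further: ATP exposure 15 min at 22 °C before imaging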
- TEST: switch fluorescence ratio, 500 uM ATP over buffer (Cy3 cluster intensity, sum of 5 cycles each) (fold (ratio)); higher = stronger signal-on switching upon ATP binding; sequences stand for … in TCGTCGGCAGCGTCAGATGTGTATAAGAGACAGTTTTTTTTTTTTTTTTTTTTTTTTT…TC
- TEST CONTEXT: aptamer strand: ATP DNA aptamer (quencher-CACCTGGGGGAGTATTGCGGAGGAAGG + anchor), 100 nM annealed; ATP concentration: 500 uM
MEASURED METRIC: switch fluorescence ratio
Enter the number alone.

QUERY: Would you mind telling me what switch fluorescence ratio value was observed for "ATTTACCGGT" ?
RESULT: 1.03

QUERY: Would you mind telling me what switch fluorescence ratio value was observed for "GGGCCAGTTG" ?
RESULT: 1.01

QUERY: Would you mind telling me what switch fluorescence ratio value was observed for "AACTCGTAGG" ?
RESULT: 0.995

QUERY: Would you mind telling me what switch fluorescence ratio value was observed for "GCAACATTCT" ?
RESULT: 1.03

QUERY: Would you mind telling me what switch fluorescence ratio value was observed for "TTTGTAATGG" ?
RESULT: 1.08

QUERY: Would you mind telling me what switch fluorescence ratio value was observed for "GAAGGGGTGG" ?
RESULT: 1.01

QUERY: Would you mind telling me what switch fluorescence ratio value was observed for "CGTAGCGTTT" ?
RESULT: 0.998

QUERY: Would you mind telling me what switch fluorescence ratio value was observed for "ATAGTTGTGG" ?
RESULT: 0.977

QUERY: Would you mind telling me what switch fluorescence ratio value was observed for "CGTAGTTTTG" ?
RESULT: 1.01

QUERY: Would you mind telling me what switch fluorescence ratio value was observed for "GTAACCAAGA" ?
RESULT: 1.02

QUERY: Would you mind telling me what switch fluorescence ratio value was observed for "AAAGGCCCGT" ?
RESULT: 1

QUERY: Would you mind telling me what switch fluorescence ratio value was observed for "AGCGCGGCGC" ?
RESULT: 1.01

QUERY: Would you mind telling me what switch fluorescence ratio value was observed for "ACTAAGGGG" ?
RESULT: 1.25

QUERY: Would you mind telling me what switch fluorescence ratio value was observed for "CCTCATGGCA" ?
RESULT: 2.11

QUERY: Would you mind telling me what switch fluorescence ratio value was observed for "CATGTGGACG" ?
RESULT: 1.1

QUERY: Would you mind telling me what switch fluorescence ratio value was observed for "CAACTAAATT" ?
RESULT: 1.01

QUERY: Would you mind telling me what switch fluorescence ratio value was observed for "ATAATTTCGG" ?
RESULT: 1.01

QUERY: Would you mind telling me what switch fluorescence ratio value was observed for "GAGGAACCGG" ?
RESULT: 1.05

QUERY: Would you mind telling me what switch fluorescence ratio value was observed for "CCCGGGAGGT" ?
RESULT: 1.03

QUERY: Would you mind telling me what switch fluorescence ratio value was observed for "CCAGCAGGGA" ?
RESULT: 1.37

QUERY: Would you mind telling me what switch fluorescence ratio value was observed for "GTCTGTGGGA" ?
RESULT: 1

QUERY: Would you mind telling me what switch fluorescence ratio value was observed for "GTTTGTGCT" ?
RESULT: 0.988

QUERY: Would you mind telling me what switch fluorescence ratio value was observed for "ATTTTGGGTG" ?
RESULT: 1.08

QUERY: Would you mind telling me what switch fluorescence ratio value was observed for "GAGTGGGGGA" ?
RESULT: 0.99

QUERY: Would you mind telling me what switch fluorescence ratio value was observed for "GGTGGGTTAG" ?
RESULT: 1.02

QUERY: Would you mind telling me what switch fluorescence ratio value was observed for "TTTTGTATTA" ?
RESULT: 0.99

QUERY: Would you mind telling me what switch fluorescence ratio value was observed for "GGGGAATTAT" ?
RESULT: 1.03

QUERY: Would you mind telling me what switch fluorescence ratio value was observed for "CCACCTTACG" ?
RESULT: 1.54

QUERY: Would you mind telling me what switch fluorescence ratio value was observed for "CACAATGCAG" ?
RESULT: 1

QUERY: Would you mind telling me what switch fluorescence ratio value was observed for "ATTATAAGGT" ?
RESULT: 1.06

QUERY: Would you mind telling me what switch fluorescence ratio value was observed for "TTTGTATGGT" ?
RESULT: 0.976

QUERY: Would you mind telling me what switch fluorescence ratio value was observed for "AGGGATGTCC" ?
RESULT: 1.01

QUERY: Would you mind telling me what switch fluorescence ratio value was observed for "GGGATCGCTA" ?
RESULT: 1

QUERY: Would you mind telling me what switch fluorescence ratio value was observed for "GCTTTTAAGT" ?
RESULT: 0.998

QUERY: Would you mind telling me what switch fluorescence ratio value was observed for "AATTTGGGGG" ?
RESULT: 1.02

QUERY: Would you mind telling me what switch fluorescence ratio value was observed for "ACTTAGGCG" ?
RESULT: 1.05

QUERY: Would you mind telling me what switch fluorescence ratio value was observed for "TCAGCTGCAA" ?
RESULT: 4.21

QUERY: Would you mind telling me what switch fluorescence ratio value was observed for "CAATTTAAGG" ?
RESULT: 0.997

QUERY: Would you mind telling me what switch fluorescence ratio value was observed for "GACGGTCATG" ?
RESULT: 0.995

QUERY: Would you mind telling me what switch fluorescence ratio value was observed for "ATCATTAGTA" ?
RESULT: 0.999

QUERY: Would you mind telling me what switch fluorescence ratio value was observed for "GTCATGGTAG" ?
RESULT: 1.02

QUERY: Would you mind telling me what switch fluorescence ratio value was observed for "CTAAGTCGAG" ?
RESULT: 0.966

QUERY: Would you mind telling me what switch fluorescence ratio value was observed for "TGCAGTAATA" ?
RESULT: 1.53

###

Kindly state switch fluorescence ratio for each of the entries shown.
- System: ATP;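 further: ATP exposure 15 min at 22 °C before imaging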
- TEST: switch fluorescence ratio, 500 uM ATP over buffer (Cy3 cluster intensity, sum of 5 cycles each) (fold (ratio)); higher = stronger signal-on switching upon ATP binding; sequences stand for … in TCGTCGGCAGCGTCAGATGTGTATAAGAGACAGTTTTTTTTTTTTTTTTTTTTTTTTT…TC
- TEST CONTEXT: aptamer strand: ATP DNA aptamer (quencher-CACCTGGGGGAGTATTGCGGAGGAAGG + anchor), 100 nM annealed; ATP concentration: 500 uM
Enter the number alone.

QUERY: Would you mind telling me what switch fluorescence ratio value was observed for "CGGGGGCAGT" ?
RESULT: 1.01

QUERY: Would you mind telling me what switch fluorescence ratio value was observed for "GACGCTAGGG" ?
RESULT: 1

QUERY: Would you mind telling me what switch fluorescence ratio value was observed for "TAAATGGA" ?
RESULT: 1.04

QUERY: Would you mind telling me what switch fluorescence ratio value was observed for "TTCTTTATAT" ?
RESULT: 0.972

QUERY: Would you mind telling me what switch fluorescence ratio value was observed for "TAAAGGCTAT" ?
RESULT: 1

QUERY: Would you mind telling me what switch fluorescence ratio value was observed for "TTGGAATGGT" ?
RESULT: 1.04

QUERY: Would you mind telling me what switch fluorescence ratio value was observed for "TGCGGGTGGG" ?
RESULT: 1.03

QUERY: Would you mind telling me what switch fluorescence ratio value was observed for "GGAGAGGTTG" ?
RESULT: 0.971

QUERY: Would you mind telling me what switch fluorescence ratio value was observed for "GGAAATTCAT" ?
RESULT: 1.36

QUERY: Would you mind telling me what switch fluorescence ratio value was observed for "TCAATTCTGA" ?
RESULT: 1

QUERY: Would you mind telling me what switch fluorescence ratio value was observed for "AGTGTGCAGG" ?
RESULT: 0.992

QUERY: Would you mind telling me what switch fluorescence ratio value was observed for "TTCCTAATGG" ?
RESULT: 1.04

QUERY: Would you mind telling me what switch fluorescence ratio value was observed for "AGAAGGCCGG" ?
RESULT: 0.98

QUERY: Would you mind telling me what switch fluorescence ratio value was observed for "CAAAGAGGCG" ?
RESULT: 1.02

QUERY: Would you mind telling me what switch fluorescence ratio value was observed for "AGCAGTGTCT" ?
RESULT: 1.04

QUERY: Would you mind telling me what switch fluorescence ratio value was observed for "TTAATTTATC" ?
RESULT: 0.998

QUERY: Would you mind telling me what switch fluorescence ratio value was observed for "ATCCCGTAGG" ?
RESULT: 0.99

QUERY: Would you mind telling me what switch fluorescence ratio value was observed for "TGTTAGGCAA" ?
RESULT: 1.06

QUERY: Would you mind telling me what switch fluorescence ratio value was observed for "TGTGGTAAGT" ?
RESULT: 1.01

QUERY: Would you mind telling me what switch fluorescence ratio value was observed for "AAATTTACAG" ?
RESULT: 1.03

QUERY: Would you mind telling me what switch fluorescence ratio value was observed for "TAAAGGTTGT" ?
RESULT: 0.994
